System: Streptococcus pneumoniae
measurement notes: Inhibition of Streptococcus pneumoniae PBP1B assessed as residual activity at 1 mM after 60 mins by SDS-PAGE
Record form. Attribute: Activity. Fill in for each entry.
Hey, just the number and the unit after it is fine.

Consider `O=C(O)c1cc(NC(=O)c2cccs2)cc(B(O)O)c1` . Its measured Activity is 70%

Consider `O=C(O)c1cc(NC(=O)c2ccccc2)cc(B(O)O)c1` . Its measured Activity is 85%

Consider `COc1ccccc1C(=O)Nc1cc(B(O)O)cc(C(=O)O)c1` . Its measured Activity is 82%

Consider `O=C(Cc1cccs1)Nc1cc(B(O)O)cc(C(=O)O)c1` . Its measured Activity is 53%

Consider `O=C(COc1ccccc1)Nc1cc(B(O)O)cc(C(=O)O)c1` . Its measured Activity is 83%

====

measurement target: Penicillin-binding protein 2x (Streptococcus pneumoniae serotype 4 (strain ATCC BAA-334 / TIGR4))
Sequence (P14677 whole entry, looked up): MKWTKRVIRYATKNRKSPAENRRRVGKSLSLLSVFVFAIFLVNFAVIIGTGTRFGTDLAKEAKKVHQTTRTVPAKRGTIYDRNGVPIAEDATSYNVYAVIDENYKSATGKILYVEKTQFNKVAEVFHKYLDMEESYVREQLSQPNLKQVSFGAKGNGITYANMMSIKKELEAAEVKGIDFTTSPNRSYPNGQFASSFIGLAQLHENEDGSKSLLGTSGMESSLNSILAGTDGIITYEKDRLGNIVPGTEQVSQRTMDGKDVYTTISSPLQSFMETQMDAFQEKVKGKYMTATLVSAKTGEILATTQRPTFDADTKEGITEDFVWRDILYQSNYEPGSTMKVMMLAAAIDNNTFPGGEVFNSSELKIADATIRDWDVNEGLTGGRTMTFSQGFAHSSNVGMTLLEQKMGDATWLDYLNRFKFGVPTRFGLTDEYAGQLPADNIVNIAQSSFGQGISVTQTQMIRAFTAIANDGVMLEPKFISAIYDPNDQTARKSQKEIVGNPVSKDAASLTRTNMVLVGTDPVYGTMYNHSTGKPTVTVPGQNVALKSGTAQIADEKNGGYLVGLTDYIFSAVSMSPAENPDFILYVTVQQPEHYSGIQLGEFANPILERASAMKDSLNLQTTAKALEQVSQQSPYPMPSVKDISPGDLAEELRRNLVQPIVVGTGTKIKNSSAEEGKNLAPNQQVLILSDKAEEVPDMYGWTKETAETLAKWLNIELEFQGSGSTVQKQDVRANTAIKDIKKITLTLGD
measurement notes: Inhibition of penicillin-resistant Streptococcus pneumoniae 5204 PBP2X preincubated for 4 hrs before addition of substrate mixture of (R)-[2-(benzoylamino)propionylsulfanyl]acetic acid and 5,5'-dithiobis(2-nitrobenzoic acid)
measured attribute: IC50

Consider `O=C(O)c1ccc(B(O)O)s1` . Its measured IC50 is > 1000 µM
